# System: human insulin
# experimentSummary: Chemical stability at 37 °C, covalent insulin polymer determined by size exclusion chromatography
# Format: physicochemical
# recordedConditions: example 1, 3 mM insulin, stabiliser equimolar to insulin, 0.5 Zn2+/insulin, NaCl 15 mM, glycylglycine 7 mM, tween 20 0.01 %, pH 7.5
Use Criterion met when the recorded Chemical stability at 37°C (% polymer / week) Insulin solution of 3 mM is no lower than 0.5 % polymer / week; use Criterion not met when it is lower.

Worked examples, 4 compounds total:
stdin: Can CC1(C)[C@H]2CC[C@H](CO)[C@@H]1C2 [(-)-trans-myrtanol] be said to have Chemical stability at 37°C (% polymer / week) Insulin solution of 3 mM at or above 0.5 % polymer / week?
stdout: Criterion met

stdin: Can CC1(C)C2CCC1(C)C(O)C2 (single isomer, unassigned; (-)) [(-)-borneol] be said to have Chemical stability at 37°C (% polymer / week) Insulin solution of 3 mM at or above 0.5 % polymer / week?
stdout: Criterion not met

stdin: Can Oc1ccccc1 be said to have Chemical stability at 37°C (% polymer / week) Insulin solution of 3 mM at or above 0.5 % polymer / week?
stdout: Criterion not met

stdin: Can CC1(C)C2CCC1(C)C(O)C2 (single isomer, unassigned; (+)) [(+)-borneol] be said to have Chemical stability at 37°C (% polymer / week) Insulin solution of 3 mM at or above 0.5 % polymer / week?
stdout: Criterion not met

***
stdin: Can CC1C(O)CC2CC1C2(C)C (single isomer, unassigned; (-)) [(-)-isopinocampheol] be said to have Chemical stability at 37°C (% polymer / week) Insulin solution of 3 mM at or above 0.5 % polymer / week?
stdout: Criterion met

====

# System: human insulin
# experimentSummary: Chemical stability at 37 °C, covalent insulin polymer determined by size exclusion chromatography
# Assay type: physicochemical
# recordedConditions: example 1, 15 mM insulin, stabiliser equimolar to insulin, 0.5 Zn2+/insulin, NaCl 15 mM, glycylglycine 7 mM, tween 20 0.01 %, pH 7.5
reportedProperty: Chemical stability at 37°C (% polymer / week) Insulin solution of 15 mM
Give bare numbers, in % polymer / week.

Previously resolved entries follow.
Chemical stability at 37°C (% polymer / week) Insulin solution of 15 mM for Oc1ccccc1 is 0.39

Chemical stability at 37°C (% polymer / week) Insulin solution of 15 mM for CC1(C)[C@H]2CC[C@H](CO)[C@@H]1C2 [(-)-trans-myrtanol] is 0.95

Chemical stability at 37°C (% polymer / week) Insulin solution of 15 mM for CC1(C)C2CCC1(C)C(O)C2 (single isomer, unassigned; (-)) [(-)-borneol] is 0.47

State recorded Chemical stability at 37°C (% polymer / week) Insulin solution of 15 mM for all listed compounds.
1. CC1C(O)CC2CC1C2(C)C (single isomer, unassigned; (-)) [(-)-isopinocampheol]
2. CC1(C)[C@H]2CC[C@](C)(C2)[C@H]1O [(+)-fenchol]
3. CC1C(O)CC2CC1C2(C)C (single isomer, unassigned; (+)) [(+)-isopinocampheol]

stdout:
1: 0.56; 2: 0.97; 3: 0.61

Chemical stability at 37°C (% polymer / week) Insulin solution of 15 mM for CC1(C)C2CCC1(C)C(O)C2 (single isomer, unassigned; (+)) [(+)-borneol] is 0.61

Values were extracted from patent EP1131089B1.
